assayed.target: T1, Nrd1_(6–151) L20D (S. cerevisiae, UniProt P53617 6-151, L20D)
T1 sequence: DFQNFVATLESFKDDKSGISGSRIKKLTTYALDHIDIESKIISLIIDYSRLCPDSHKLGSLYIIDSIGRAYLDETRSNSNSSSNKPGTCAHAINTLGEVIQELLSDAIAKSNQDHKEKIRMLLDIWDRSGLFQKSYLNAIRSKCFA
protocol.description: fluorescence polarisation
pKd: −log10 of the molar value. Where no end group is shown, it is not given here. [ ]: non-standard residue; d: D form. pS = N[C@@H](COP(=O)(O)O)C(=O)O

- binder: "Y[pS]PTSPSY[pS]PTSPS [unlabeled double-repeat CTD-Ser2P peptide]"
  pKd: 3.25
